B1: library; a variant is named by its letters at N, in order (parent)
chain: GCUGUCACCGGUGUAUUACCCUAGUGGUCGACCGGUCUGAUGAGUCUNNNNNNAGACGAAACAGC

Variants of: B1
Experiment: normalized RNA/DNA level without ligand (relative to sTRSVctl = 100) (log10 (% of sTRSVctl)); ligand: hypoxanthine (xanthine aptamer); higher = less ribozyme self-cleavage, higher mRNA level
Settings: HEK293T, reporter: mCherry (pCS4076), ligand present: no
Measured Attribute: normalized RNA/DNA level without ligand (log10)
Would you mind answering with just the numeric figure?

// query // lookup normalized RNA/DNA level without ligand (log10) for GCUGUCACCGGUGUAUUACCCUAGUGGUCGACCGGUCUGAUGAGUCUCGACUGAGACGAAACAGC [CGACUG]
// result 1.83

// query Find the recorded normalized RNA/DNA level without ligand (log10) belonging to GCUGUCACCGGUGUAUUACCCUAGUGGUCGACCGGUCUGAUGAGUCUAACGCAAGACGAAACAGC [AACGCA] and report it.
// result 1.76

// query So what's the measured normalized RNA/DNA level without ligand (log10) for this one? GCUGUCACCGGUGUAUUACCCUAGUGGUCGACCGGUCUGAUGAGUCUGGGUCUAGACGAAACAGC [GGGUCU]
// result 1.93

// query Param item = GCUGUCACCGGUGUAUUACCCUAGUGGUCGACCGGUCUGAUGAGUCUUAGGGGAGACGAAACAGC [UAGGGG] ; retrieve measured normalized RNA/DNA level without ligand (log10).
// result 1.5

// query Look at this variant and give its reported normalized RNA/DNA level without ligand (log10). GCUGUCACCGGUGUAUUACCCUAGUGGUCGACCGGUCUGAUGAGUCUCCAAGCAGACGAAACAGC [CCAAGC]
// result 1.79

// query Value lookup for normalized RNA/DNA level without ligand (log10); key = GCUGUCACCGGUGUAUUACCCUAGUGGUCGACCGGUCUGAUGAGUCUCACCAGAGACGAAACAGC [CACCAG]
// result 1.81

// query normalized RNA/DNA level without ligand (log10) lookup needed for GCUGUCACCGGUGUAUUACCCUAGUGGUCGACCGGUCUGAUGAGUCUAAGUGAAGACGAAACAGC [AAGUGA] , thanks.
// result 1.47

// query Requested read-out: normalized RNA/DNA level without ligand (log10). Entry: GCUGUCACCGGUGUAUUACCCUAGUGGUCGACCGGUCUGAUGAGUCUCUUUGUAGACGAAACAGC [CUUUGU]
// result 1.97

// query Entry GCUGUCACCGGUGUAUUACCCUAGUGGUCGACCGGUCUGAUGAGUCUACUUACAGACGAAACAGC [ACUUAC] has what normalized RNA/DNA level without ligand (log10)?
// result 1.84

// query Give its normalized RNA/DNA level without ligand (log10) value. Item: GCUGUCACCGGUGUAUUACCCUAGUGGUCGACCGGUCUGAUGAGUCUAGAUAAAGACGAAACAGC [AGAUAA]
// result 1.75

// query Any idea what its normalized RNA/DNA level without ligand (log10) is? The variant is GCUGUCACCGGUGUAUUACCCUAGUGGUCGACCGGUCUGAUGAGUCUGCUAAGAGACGAAACAGC [GCUAAG]
// result 1.42

// query Please look up its normalized RNA/DNA level without ligand (log10): GCUGUCACCGGUGUAUUACCCUAGUGGUCGACCGGUCUGAUGAGUCUGUUAACAGACGAAACAGC [GUUAAC]
// result 1.81
